Test system: Escherichia coli TOP10
Assay: shrunken log2 fold change of peptide-encoding DNA abundance (4.5 h post-induction vs induction); higher = less antimicrobial activity (less host growth inhibition)
Settings: time post-induction: 4.5 h; library: site-saturation at positions 5, 18, 19, 20
Catalogue of shrunken log2 fold change values
measurementKind: shrunken log2 fold change

RRIRARPPRLPRPRPRPIWNPRP :: -0.0575
RRIRHRPPRLPRPRPRPWGDPRP :: 0.0821
RRIRWRPPRLPRPRPRPWGHPRP :: -0.404
RRIRDRPPRLPRPRPRPPEYPRP :: -0.0893
RRIRKRPPRLPRPRPRPPSRPRP :: 0.772
RRIRFRPPRLPRPRPRPRHCPRP :: -0.239
RRIRKRPPRLPRPRPRPWEVPRP :: 0.0986
RRIRIRPPRLPRPRPRPQRDPRP :: 0.0634
RRIRTRPPRLPRPRPRPICGPRP :: 0.0749
RRIRPRPPRLPRPRPRPKNMPRP :: -0.436
RRIRARPPRLPRPRPRPSGFPRP :: 0.0172
RRIRCRPPRLPRPRPRPTFGPRP :: -0.213
RRIRTRPPRLPRPRPRPETCPRP :: -0.0408
RRIRDRPPRLPRPRPRPNEMPRP :: 0.00902
RRIRHRPPRLPRPRPRPCLSPRP :: 0.0289

###

Catalogue of shrunken log2 fold change values
System: Escherichia coli TOP10
Test: shrunken log2 fold change of peptide-encoding DNA abundance (4.5 h post-induction vs induction); higher = less antimicrobial activity (less host growth inhibition)
Details: time post-induction: 4.5 h; library: site-saturation at positions 5, 18, 19, 20
measurementKind: shrunken log2 fold change

RRIRLRPPRLPRPRPRPFWRPRP :: 0.252
RRIRLRPPRLPRPRPRPRQRPRP :: 0.892
RRIRNRPPRLPRPRPRPEVVPRP :: -0.252
RRIRHRPPRLPRPRPRPLIGPRP :: -0.155
RRIRGRPPRLPRPRPRPMDAPRP :: 0.322
RRIRFRPPRLPRPRPRPIGMPRP :: -0.0266
RRIRPRPPRLPRPRPRPQMVPRP :: -0.491
RRIRCRPPRLPRPRPRPVFLPRP :: -0.429
RRIRLRPPRLPRPRPRPELYPRP :: -0.0383
RRIRNRPPRLPRPRPRPIATPRP :: -0.0576
RRIRSRPPRLPRPRPRPIWTPRP :: -0.254
RRIRLRPPRLPRPRPRPNYHPRP :: -0.536
RRIRARPPRLPRPRPRPRRTPRP :: 0.577
RRIRIRPPRLPRPRPRPHRVPRP :: -0.24
RRIRRRPPRLPRPRPRPNADPRP :: 0.579

###

System: Escherichia coli TOP10
Experiment: shrunken log2 fold change of peptide-encoding DNA abundance (4.5 h post-induction vs induction); higher = less antimicrobial activity (less host growth inhibition)
Details: time post-induction: 4.5 h; library: site-saturation at positions 5, 18, 19, 20
Catalogue of shrunken log2 fold change values
measurementKind: shrunken log2 fold change

RRIRKRPPRLPRPRPRPVSNPRP :: -0.212
RRIRDRPPRLPRPRPRPTPCPRP :: 0.25
RRIRFRPPRLPRPRPRPQGNPRP :: 0.311
RRIRCRPPRLPRPRPRPSKNPRP :: -0.382
RRIRDRPPRLPRPRPRPKSNPRP :: -0.305
RRIRLRPPRLPRPRPRPPKQPRP :: 0.0446
RRIRHRPPRLPRPRPRPKHYPRP :: -0.577
RRIRSRPPRLPRPRPRPSTLPRP :: 0.658
RRIRCRPPRLPRPRPRPNQYPRP :: -0.92
RRIRGRPPRLPRPRPRPVCYPRP :: 0.833
RRIRDRPPRLPRPRPRPVGYPRP :: 0.0934
RRIRERPPRLPRPRPRPIYCPRP :: -0.143
RRIRDRPPRLPRPRPRPRVAPRP :: 0.729
RRIRHRPPRLPRPRPRPQGAPRP :: -0.171
RRIRVRPPRLPRPRPRPRPYPRP :: 0.179
RRIRSRPPRLPRPRPRPKLKPRP :: 0.149
RRIRIRPPRLPRPRPRPQRVPRP :: -0.406
RRIRKRPPRLPRPRPRPHDEPRP :: 0.261
RRIRWRPPRLPRPRPRPRLHPRP :: 0.191
RRIRQRPPRLPRPRPRPCNWPRP :: 0.0183
RRIRNRPPRLPRPRPRPRAQPRP :: 0.188
RRIRTRPPRLPRPRPRPITWPRP :: -0.252
RRIRIRPPRLPRPRPRPESNPRP :: 0.0344
RRIRWRPPRLPRPRPRPYGPPRP :: -0.0264
RRIRFRPPRLPRPRPRPMRLPRP :: 0.947
RRIRIRPPRLPRPRPRPYQQPRP :: -0.0163
RRIRTRPPRLPRPRPRPKHCPRP :: -0.0769
RRIRQRPPRLPRPRPRPMACPRP :: -0.159
RRIRTRPPRLPRPRPRPEVSPRP :: -0.28
RRIRGRPPRLPRPRPRPAHPPRP :: 0.754
RRIRQRPPRLPRPRPRPEPRPRP :: 0.508
RRIRYRPPRLPRPRPRPHLQPRP :: -0.388

###

Catalogue of shrunken log2 fold change values
System: Escherichia coli TOP10
Test: shrunken log2 fold change of peptide-encoding DNA abundance (4.5 h post-induction vs induction); higher = less antimicrobial activity (less host growth inhibition)
Settings: time post-induction: 4.5 h; library: site-saturation at positions 5, 18, 19, 20
measurementKind: shrunken log2 fold change

RRIRVRPPRLPRPRPRPWYGPRP :: -0.367
RRIRVRPPRLPRPRPRPHNVPRP :: -0.859
RRIRSRPPRLPRPRPRPVCQPRP :: -0.569
RRIRVRPPRLPRPRPRPCWNPRP :: 0.0501
RRIRERPPRLPRPRPRPRQKPRP :: 0.0386
RRIRVRPPRLPRPRPRPVMSPRP :: -0.213
RRIRNRPPRLPRPRPRPRFTPRP :: -0.286
RRIRDRPPRLPRPRPRPSWHPRP :: -0.0852
RRIRCRPPRLPRPRPRPYCEPRP :: -0.195
RRIRHRPPRLPRPRPRPFKFPRP :: -0.376
RRIRSRPPRLPRPRPRPCGGPRP :: 0.012
RRIRRRPPRLPRPRPRPMHYPRP :: 0.117
RRIRVRPPRLPRPRPRPPNSPRP :: 0.12
RRIRQRPPRLPRPRPRPHEVPRP :: -0.0426
RRIRCRPPRLPRPRPRPLQFPRP :: -0.0752

###

Catalogue of shrunken log2 fold change values
Test system: Escherichia coli TOP10;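 note: peptides expressed intracellularly from a pBAD plasmid library in pooled LB shake-flask culture, induced with 0.3% L-arabinose, DNA abundance read by NGS, three biological replicates, DESeq2 with apeglm shrinkage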
Experiment: shrunken log2 fold change of peptide-encoding DNA abundance (4.5 h post-induction vs induction); higher = less antimicrobial activity (less host growth inhibition)
Settings: time post-induction: 4.5 h; library: site-saturation at positions 5, 18, 19, 20
measurementKind: shrunken log2 fold change

RRIRCRPPRLPRPRPRPQCVPRP :: -0.0975
RRIRPRPPRLPRPRPRPCIHPRP :: -0.252
RRIRQRPPRLPRPRPRPQMLPRP :: 0.0203
RRIRTRPPRLPRPRPRPARIPRP :: -0.0205
RRIRVRPPRLPRPRPRPTEHPRP :: -0.0827
RRIRRRPPRLPRPRPRPHSYPRP :: -0.187
RRIRVRPPRLPRPRPRPIVAPRP :: -0.00399
RRIRSRPPRLPRPRPRPYYQPRP :: -0.608
RRIRIRPPRLPRPRPRPNHPPRP :: -0.469
RRIRARPPRLPRPRPRPSLDPRP :: 0.735
RRIRLRPPRLPRPRPRPMKMPRP :: -0.409
RRIRPRPPRLPRPRPRPCGSPRP :: -0.023
RRIRARPPRLPRPRPRPIFGPRP :: 0.0662
RRIRGRPPRLPRPRPRPQRIPRP :: 0.178
RRIRWRPPRLPRPRPRPKQNPRP :: 0.3
RRIRDRPPRLPRPRPRPNHEPRP :: -0.0728
RRIRGRPPRLPRPRPRPAHCPRP :: 1.06
RRIRWRPPRLPRPRPRPDLHPRP :: 0.243
RRIRWRPPRLPRPRPRPTDTPRP :: -0.0769
RRIRLRPPRLPRPRPRPRQWPRP :: 0.223
RRIRSRPPRLPRPRPRPCYQPRP :: 0.0321
RRIRCRPPRLPRPRPRPARLPRP :: 0.395
RRIRCRPPRLPRPRPRPYRWPRP :: -0.141
RRIRFRPPRLPRPRPRPLCQPRP :: -0.12
RRIRCRPPRLPRPRPRPDDGPRP :: -0.0952
RRIRARPPRLPRPRPRPAFAPRP :: 0.685
RRIRVRPPRLPRPRPRPPREPRP :: 0.267
RRIRCRPPRLPRPRPRPNRHPRP :: -0.388
RRIRTRPPRLPRPRPRPCHRPRP :: -0.000687
RRIRNRPPRLPRPRPRPDHAPRP :: -0.0118
RRIRYRPPRLPRPRPRPEGCPRP :: 0.204
RRIRNRPPRLPRPRPRPDGNPRP :: 0.102
